The origin of these recorded values is the supplement of paper PMC8728848.

# assay_target: Gal(b1-3)[Fuc(a1-4)]GlcNAc(b1-3)Gal(b1-4)[Fuc(a1-3)]GlcNAc
# test: glycan array binding signal (z-score within array); higher = stronger binding
# settings: glycan notation: IUPAC condensed, linker removed
Shown is part of a subset that was picked to be rich in the strongest signals.
experimental_readout: glycan array binding signal (z-score)
Write the number on its own, no unit after it.

Notebook: CD83 (Homo sapiens) (protein) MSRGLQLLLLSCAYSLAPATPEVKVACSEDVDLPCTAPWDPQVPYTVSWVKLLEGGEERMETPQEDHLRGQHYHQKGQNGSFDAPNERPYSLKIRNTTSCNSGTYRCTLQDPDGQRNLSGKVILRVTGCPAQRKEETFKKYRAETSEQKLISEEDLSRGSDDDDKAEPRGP , glycan array binding signal (z-score) read as -0.243
